B1: TPR 5TU (parent)
chain: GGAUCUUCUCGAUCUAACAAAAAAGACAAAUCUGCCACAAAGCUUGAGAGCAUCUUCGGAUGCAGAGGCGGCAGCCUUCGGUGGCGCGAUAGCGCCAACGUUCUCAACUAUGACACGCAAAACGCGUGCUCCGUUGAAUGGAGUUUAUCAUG

Variants of: B1
Assay: polymerase ribozyme fitness, log enrichment relative to wild type (log ratio); higher = more active; in vitro selection for triplet polymerase activity
Variants at the floor of the assay were thinned out.

>  <Mutation name>
G92A C96A C103G C105U A107G A119G C125U C149A

>  <polymerase ribozyme fitness (log ratio)>
≤ -4.2

$$$$
>  <Mutation name>
A19G A41U C57U G84U U146A A147U U151A

>  <polymerase ribozyme fitness (log ratio)>
≤ -4.2

$$$$
>  <Mutation name>
C38G U55A C96A A150G

>  <polymerase ribozyme fitness (log ratio)>
-2.63

$$$$
>  <Mutation name>
U15G A23G G50C C51G C63G C96G

>  <polymerase ribozyme fitness (log ratio)>
≤ -4.2

$$$$
>  <Mutation name>
A19U A22U A47C G80A G86A C87A C95U U104G A120U

>  <polymerase ribozyme fitness (log ratio)>
≤ -4.2

$$$$
>  <Mutation name>
C93A C116A G126A G141C

>  <polymerase ribozyme fitness (log ratio)>
≤ -4.2

$$$$
>  <Mutation name>
C36U A37U U56A A91C C116G

>  <polymerase ribozyme fitness (log ratio)>
≤ -4.2

$$$$
>  <Mutation name>
C76A G88C

>  <polymerase ribozyme fitness (log ratio)>
≤ -4.2

$$$$
>  <Mutation name>
C38G U44A G65C

>  <polymerase ribozyme fitness (log ratio)>
≤ -4.2

$$$$
>  <Mutation name>
A28C A47C G62C C108G A122C

>  <polymerase ribozyme fitness (log ratio)>
≤ -4.2

$$$$
>  <Mutation name>
A19G G50C C75G C85G C103A U135C

>  <polymerase ribozyme fitness (log ratio)>
≤ -4.2

$$$$
>  <Mutation name>
A17G C72A U77G C79U U109G

>  <polymerase ribozyme fitness (log ratio)>
≤ -4.2

$$$$
>  <Mutation name>
C96G A120G

>  <polymerase ribozyme fitness (log ratio)>
-2

$$$$
>  <Mutation name>
U6G A23G U144G

>  <polymerase ribozyme fitness (log ratio)>
-3.95

$$$$
>  <Mutation name>
C8A C85G C103U A110G U134G C149G

>  <polymerase ribozyme fitness (log ratio)>
≤ -4.2

$$$$
>  <Mutation name>
U56A G58C U61A G86U C87A G100U

>  <polymerase ribozyme fitness (log ratio)>
≤ -4.2

$$$$
>  <Mutation name>
G59A C85A A115G C123U

>  <polymerase ribozyme fitness (log ratio)>
-2.65

$$$$
>  <Mutation name>
C38U G117U

>  <polymerase ribozyme fitness (log ratio)>
0.325

$$$$
>  <Mutation name>
C14U C87U C99U G124A C125U

>  <polymerase ribozyme fitness (log ratio)>
-2.54

$$$$
>  <Mutation name>
U15G A40C G42A A49G G62C C93A

>  <polymerase ribozyme fitness (log ratio)>
≤ -4.2

$$$$
>  <Mutation name>
C5G A20C

>  <polymerase ribozyme fitness (log ratio)>
-0.472

$$$$
>  <Mutation name>
C18G G86A C87A A91C A120C

>  <polymerase ribozyme fitness (log ratio)>
≤ -4.2

$$$$
>  <Mutation name>
C103G A115C A137G C149G

>  <polymerase ribozyme fitness (log ratio)>
≤ -4.2

$$$$
>  <Mutation name>
A40U G80A C87A U127G A147C

>  <polymerase ribozyme fitness (log ratio)>
≤ -4.2

$$$$
